molecular target: wild-type DegS (Escherichia coli, UniProt P0AEE3); assay: OMP-peptide activation of RseA cleavage by wild-type DegS; type: biochemical, E. coli
Sequence (P0AEE3 27-355): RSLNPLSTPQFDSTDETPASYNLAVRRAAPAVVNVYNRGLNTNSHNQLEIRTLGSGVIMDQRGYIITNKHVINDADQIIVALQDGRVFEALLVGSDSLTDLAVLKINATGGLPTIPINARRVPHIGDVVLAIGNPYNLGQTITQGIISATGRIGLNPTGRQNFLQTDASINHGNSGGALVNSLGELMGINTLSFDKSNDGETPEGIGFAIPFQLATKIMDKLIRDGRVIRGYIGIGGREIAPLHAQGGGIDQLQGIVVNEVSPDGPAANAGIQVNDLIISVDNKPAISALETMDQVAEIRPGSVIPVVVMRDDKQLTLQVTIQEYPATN
No end group written: not given here.
measured metric: EC50

- input sequence: "KRRKGKVYYF [KRRKGKVYYF]"
  target under test: "wild-type DegS (Escherichia coli, UniProt P0AEE3)"
  measured metric: "EC50"
  data value: "≤ 1000 nM"

###

target: D320A DegS (Escherichia coli, UniProt P0AEE3, D320A); assay: OMP-peptide activation of RseA cleavage by D320A DegS; format: biochemical, E. coli
Sequence (P0AEE3 27-355 D320A): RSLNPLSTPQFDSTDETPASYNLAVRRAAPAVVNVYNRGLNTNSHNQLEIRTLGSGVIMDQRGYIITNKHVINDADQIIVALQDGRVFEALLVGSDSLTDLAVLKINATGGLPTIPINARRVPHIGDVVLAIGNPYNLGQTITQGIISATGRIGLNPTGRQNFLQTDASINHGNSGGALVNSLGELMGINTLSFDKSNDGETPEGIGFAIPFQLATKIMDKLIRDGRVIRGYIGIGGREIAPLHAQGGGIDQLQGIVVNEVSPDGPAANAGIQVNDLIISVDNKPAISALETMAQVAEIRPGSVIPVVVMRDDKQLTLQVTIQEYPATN
No end group written: not given here.

- input sequence: "DNRDGNVYYF [DNRDGNVYYF]"
  EC50 [nM]: 200
